Assay: Stability of Compound Ia (5 mg/ml) in aqueous solutions on storage at 56°C
Type: physicochemical
Conditions: ethanol/water 50/50, 5mg/ml, Ethanol/Water (v/v) 50/50, calculated dielectric constant 51.4, 56°C, 4 weeks; read-out: % Remaining (4 weeks)
Recorded Endpoint: remaining at 672 h (%)
Quick note: give the figure in %, leave out the unit.

Data request, read-out remaining at 672 h, for CCN(CC)CCNC(=O)c1cc(Cl)c(N)cc1OC(C)C(C)=O (stereo not shown)
99.5

----------
Assay: Stability of Compound Ia (5 mg/ml) in aqueous solutions on storage at 56°C
Assay type: physicochemical
Conditions: 25% (w/v) propylene glycol, 5mg/ml, solvent 25% (w/v) Propylene Glycol, calculated dielectric constant 67.3, 56°C, 4 weeks; read-out: % Remaining (4 weeks)
Recorded Endpoint: remaining at 672 h (%)
Quick note: give the figure in %, leave out the unit.

Data request, read-out remaining at 672 h, for CCN(CC)CCNC(=O)c1cc(Cl)c(N)cc1OC(C)C(C)=O (stereo not shown) [Compound Ia]
97.7
